Recorded composite z-score for the following compounds
test: binders of probe aFGF2 on microarray, primary screen, stem cell growth factor project, biochemical, small-molecule microarray, fluorescence 635/667 (AID 1067); conditions: higher = more signal;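 note: measures binding of biotinylated aFGF2 protein to printed compounds on slides; z-score merges feature fluorescence and signal-to-noise across triplicate slides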
Enter the number alone.

Reference set (5 entries):
{"compound": "CN1C(=O)C2C=CC(C(O)C3CCCCC3)N(N3CCCCC3)C2C1=O (stereo not drawn)", "obs value": 0.156}
{"compound": "C=C(COC)/C(=C/C[C@@H](OC(=O)c1ccncc1)c1cccc(OCCO)c1)c1cnc2ccccc2c1", "obs value": 0.0601}
{"compound": "COCCOC(=O)N1C(=O)[C@@]2(c3cc(C#CC4(O)CCCCCC4)ccc31)[C@H](C(=O)N1CCCCCCC1)[C@H]1C(=O)O[C@H](c3ccccc3)[C@H](c3ccccc3)N1[C@@H]2c1ccc(OCCO)cc1", "obs value": 0.79}
{"compound": "O=C1c2ccccc2[C@](Cc2ccccc2I)(C(=O)NCCN2CCOCC2)[C@H](c2ccc(CO)cc2)N1Cc1ccccc1", "obs value": -0.0356}
{"compound": "CC(C)C(O)C1C=CC2C(=O)N(C)C(=O)C2N1N(c1ccccc1)c1ccccc1 (stereo not drawn)", "obs value": -0.0613}

Q) GET /values?readout=composite z-score&item= `CON(C)C(=O)C=C1C[C@@H](c2cccc(Cl)c2)O[C@@H](c2cccc(Cl)c2)O1`
A) 0.0168

Q) GET /values?readout=composite z-score&item= `C=CCOC(=O)[C@@H]1[C@H]2C(=O)O[C@H](c3ccccc3)[C@H](c3ccccc3)N2[C@H](c2ccc(OCCOC(=O)[C@H]3C[C@H]4C(=O)N[C@@H](CCCCNC(C)=O)C(=O)N4[C@H]3c3cccc(OCCO)c3)cc2)[C@@]12C(=O)Nc1ccc(I)cc12`
A) -0.0718

Q) GET /values?readout=composite z-score&item= `C=C(COC)/C(=C/C[C@@H](OC(=O)c1ccncc1)c1ccc(CO)o1)c1cnc2ccccc2c1`
A) 0.0235
